Origin of measurements: paper PMC7822874

Assay: in vitro
Settings: human, hepg2 cells
measurement_type: CC50 at 48 h (µM)
Numbers only; they are read as µM.

{"columns": ["molecule", "measurement_type", "unit_spec", "numeric_value"],
 "data": [
  ["CCN(CC)CCn1c(=N)n(CC(O)COc2ccccc2C)c2ccccc21 (centres unmarked)", "CC50 at 48 h", "µM", 27.3],
  ["O=C(Nc1ccc(C(F)(F)F)cc1)N1CCN(c2ccnc3cc(Cl)ccc23)CC1", "CC50 at 48 h", "µM", 24.3],
  ["CCOC(=O)c1ccc(-c2ccc(/C=C(\\C#N)c3nc4cc(C)ccc4[nH]3)o2)cc1", "CC50 at 48 h", "µM", 43.2],
  ["CCN(CC)CCNC(=O)c1ccc(NC(=O)c2cn(-c3ccc(F)cc3)nc2-c2cccc(OC)c2)cc1", "CC50 at 48 h", "µM", 30.6],
  ["CCCCC(=O)NC(c1cccc([N+](=O)[O-])c1)c1c(OC(C)=O)ccc2ccccc12 (centres unmarked)", "CC50 at 48 h", "µM", 43.2]
]}

Using the record for CCCCN1C(=O)c2[nH]nc(-c3ccccc3O)c2C1c1ccc(OCc2ccccc2)cc1 (centres unmarked) , report its CC50 at 48 h.
43.2

I would be grateful if you could share the reported CC50 at 48 h for CC(C)(C)CC(C)(C)c1ccc(O)c(Cc2ccc(Cl)cc2Cl)c1 .
21.7

Given the entry Cc1cnc(C(=O)Nc2cccc3cccnc23)cn1 , report its measured CC50 at 48 h.
0.611

Fill blank: measured CC50 at 48 h of the molecule CCC(CC)c1cc([C@H]2CN3CC[C@H]2C[C@@H]3COC(=O)Nc2ccc(C(C)(C)C)cc2)nc(-c2ccncc2)n1 is ____.
43.2

Requested field: CC50 at 48 h. Item: Cc1cccc(Cn2nnc3c2C(=O)c2ccccc2C3=O)c1
43.2

Please look up its CC50 at 48 h: CCOc1ccc(C2=C(C(C)=O)Sc3nnc(C)n3N2C(C)=O)cc1
43.2
